tested on: NCI-H226 lung; assay: NCI-60 one-dose screen, 48 h; settings: 10 µM unless noted
About 83,000 compounds went through this panel and 20% of them were active in at least one assay; those are over-represented in the sample as a whole. Calls of active or inactive are those of the source. Rule for the calls: active = growth percent below 10; inactive = the rest.
Permitted responses: y for active, n for inactive

Incoming: Given Fc1ccc(Nc2nnc(-c3ccc(Cl)cc3)o2)cc1 , state the outcome it received in this test.
Outgoing: n

Incoming: Tell me the assay call for COc1cc(/C=N/Nc2ncnc3c2c(C)nn3-c2ccc(F)cc2)ccc1O please.
Outgoing: n

Incoming: Recorded test call requested for Nc1c(C(=O)Nc2c(Cl)cccc2Cl)sc2nc3c(cc12)CCCC3
Outgoing: n

Incoming: Call for entry CC1c2ccccc2N(S(=O)(=O)c2ccccc2)C1C (configuration not stated) :
Outgoing: n

Incoming: Returns: the outcome recorded for NC1=NN=C2N(N)C(=O)c3cnn(-c4ccccc4)c3N2c2nc(-c3ccccc3)cc(-c3ccccc3)c21 in this assay.
Outgoing: n

Incoming: Dear colleague, could you share the recorded outcome for COc1cc(NC(C)CN(CC(C)C)C(C)C)c2ncccc2c1 (configuration not stated) when you have a moment?
Outgoing: n

Incoming: Identify the outcome logged in this assay for the compound shown: CCOC(=O)c1ccc2c(c1)[n+](=O)c(C(=O)C1CCCS1)c(C(F)(F)F)n2[O-] (configuration not stated)
Outgoing: y

* * *

system: UACC-257 melanoma; assay: NCI-60 one-dose screen, 48 h; details: 10 µM unless noted
The panel holds about 83,000 compounds, 20% with a hit somewhere; the sample as a whole holds those more often. Calls of active or inactive are those of the source. How the source made its calls: active means growth percent below 10; inactive means the rest.
Hello, when you answer, please use one of the following outcomes: active, inactive

Incoming: So what was the verdict on C=C(C)[C@@H]1CC[C@]2(c3nnc(-c4ccncc4)o3)CC[C@]3(C)[C@H](CC[C@@H]4[C@@]5(C)CCC(=O)NC(C)(C)[C@@H]5CC[C@]43C)[C@@H]12 in this test?
Outgoing: inactive

Incoming: For this compound, state the assay outcome: C[C@@H](Oc1ccc(C(=O)NS(=O)(=O)C(C)(C)C)cc1C(F)(F)F)c1ccc(Oc2ccccc2)cn1
Outgoing: inactive

Incoming: Would you mind telling me which call this test gave COc1ccc(-c2nc3ccccn3c2-c2nc3ccc(Cl)cc3[nH]2)cc1 ?
Outgoing: inactive

Incoming: Test call, this compound: O=C1CCC/C=C\C[C@H]2C=C(Cl)C(=O)/C2=C/C[C@H](CCCCC(F)(F)F)OC(=O)CCC/C=C\C[C@H]2C=C(Cl)C(=O)/C2=C/C[C@H](CCCCC(F)(F)F)O1
Outgoing: active

Incoming: Outcome logged for O=C1NC(c2ccc(Cl)c(Cl)c2)=C/C1=C\c1ccccc1 in this assay:
Outgoing: inactive

Incoming: What call does the record list for O=C1/C(=C\c2ccco2)SC(=S)N1CCc1ccc(O)cc1 ?
Outgoing: inactive

Incoming: Field: outcome | Entry: COc1ccc(-c2nc3ncccn3c2-c2nc3ccc(Br)cc3[nH]2)cc1
Outgoing: inactive

Incoming: Can you look up the reported call for Cc1cc(N2CCCC2)nc(N(CCNc2ccnc3cc(Cl)ccc23)Cc2ccco2)n1 for me?
Outgoing: inactive

Incoming: Test call, this compound: Cc1cc2nc3c4cc([N+](=O)[O-])cc([N+](=O)[O-])c4n(CCN(C)C)c3nc2cc1C
Outgoing: inactive

* * *

system: UACC-257 melanoma; experiment: NCI-60 one-dose screen, 48 h (100 = growth as untreated, 0 = no growth, -100 = all killed); settings: 10 µM unless noted
Compounds without any hit were thinned out: in the full panel of roughly 83,000, 20% have a hit.
Consider the following compounds; for each one, report its growth.
Numbers only; they are read as %.

The observed growth for COC(=O)[C@]12CC[C@@H](C(C)=O)[C@@H]1[C@H]1CC[C@@H]3[C@@]4(C)C/C(=C/c5cccnc5)C(=O)C(C)(C)[C@@H]4CC[C@@]3(C)[C@]1(C)CC2 when tested with UACC-257 melanoma stands at 58.1

The reported growth value, UACC-257 melanoma, for COc1ccccc1-n1cnc(N)c1C(=O)c1cc(OC)c(OC)c(OC)c1 reads 59.8

Query CC(=O)OC[C@]12CC[C@@H](/C(C)=N/O)[C@@H]1[C@H]1CC[C@@H]3[C@@]4(C)CCCNC(C)(C)[C@@H]4CC[C@@]3(C)[C@]1(C)CC2 on UACC-257 melanoma; growth returned: 81.4

Value sought: growth, system UACC-257 melanoma, item Cc1cc(N=O)cc(C(C)(C)C)c1O . Result: 75.1

The compound N=C(N)c1ccc(-c2ccc(-c3cc(F)cc(F)c3)o2)nc1 , tested on UACC-257 melanoma, showed growth of 115

UACC-257 melanoma assay, compound O=C(O[C@@H]1Cc2c(O)cc(O)cc2O[C@@H]1c1cc(O)c(O)c(O)c1)c1cc(O)c2c(c1)OCO2 , recorded growth = 83

// provenance: PubChem BioAssay (NCI)
